System: human Factor XI mRNA
Test: Dose-dependent inhibition in HepG2 cells, electroporation (Example 4)
Format: cell-based
Conditions: 6.7 μM, 16 hours
Description: The gapmers were also transfected via electroporation and their dose dependent inhibition of human Factor XI mRNA was measured. […] After a treatment period of approximately 16 hours, RNA was isolated from the cells and Factor XI mRNA levels were measured by quantitative real-time PCR. […] Factor XI mRNA levels were adjusted according to total RNA content, as measured by RIBOGREEN®. […]
In the oligonucleotide strings, read from the 5' end, every base follows the letter of its sugar. An asterisk marks phosphorothioate; unmarked linkages are phosphodiester. Other units and linkages are bracketed, terminal groups are in braces. A string of capitals states the bases alone. e = 2'-O-(2-methoxyethyl) (MOE); [5mC] = 5-methylcytosine; d = 2'-deoxy (DNA)
Give Criterion met when the value for percent inhibition of Factor XI mRNA, relative to untreated control cells is at least 80%. Give Criterion not met when it is less.

Does 413476 (antisense eT*eT*eG*eA*eG*dA*dT*dT*d[5mC]*dT*dT*dT*dG*dG*dG*e[5mC]*e[5mC]*eA*eT*eT) [compound 413476] have a reported percent inhibition of Factor XI mRNA, relative to untreated control cells of at least 80%?
Criterion met

Could you please find out whether 416984 (antisense e[5mC]*eA*dA*d[5mC]*d[5mC]*dG*dG*dG*dA*dT*dG*dA*dT*dG*dA*eG*eT*eG*e[5mC]*eA) [compound 416984] has percent inhibition of Factor XI mRNA, relative to untreated control cells that meets 80% or exceeds it?
Criterion met

Can 416931 (antisense eG*eG*e[5mC]*dA*dT*dT*dG*dG*dT*dG*d[5mC]*dA*d[5mC]*dA*dG*dT*dT*eT*e[5mC]*eT) [compound 416931] be said to have percent inhibition of Factor XI mRNA, relative to untreated control cells at or above 80%?
Criterion not met

Could you verify whether the entry 416924 (antisense eG*eT*eG*d[5mC]*dA*d[5mC]*dA*dG*dT*dT*dT*d[5mC]*dT*dG*dG*d[5mC]*dA*eG*eG*e[5mC]) [compound 416924] shows percent inhibition of Factor XI mRNA, relative to untreated control cells of no less than 80%?
Criterion not met

Please tell me: is the substance 413474 (antisense eA*eG*e[5mC]*eA*eA*d[5mC]*d[5mC]*dG*dG*dG*dA*dT*dG*dA*dT*eG*eA*eG*eT*eG) [compound 413474] at or over 80% in terms of percent inhibition of Factor XI mRNA, relative to untreated control cells?
Criterion not met

Decide: is the reported value of percent inhibition of Factor XI mRNA, relative to untreated control cells for 416989 (antisense eG*eA*dG*dA*dT*dT*d[5mC]*dT*dT*dT*dG*dG*dG*d[5mC]*d[5mC]*eA*eT*eT*e[5mC]*e[5mC]) [compound 416989] equal to or greater than 80%?
Criterion met

# check: percent inhibition of Factor XI mRNA, relative to untreated control cells of 416922 (antisense eG*e[5mC]*eA*d[5mC]*dA*dG*dT*dT*dT*d[5mC]*dT*dG*dG*d[5mC]*dA*dG*dG*e[5mC]*e[5mC]*eT) [compound 416922] is greater than or equal to 80%
Criterion not met

Decide: is the reported value of percent inhibition of Factor XI mRNA, relative to untreated control cells for 416926 (antisense eT*eG*eG*dT*dG*d[5mC]*dA*d[5mC]*dA*dG*dT*dT*dT*d[5mC]*dT*dG*dG*e[5mC]*eA*eG) [compound 416926] equal to or greater than 80%?
Criterion met

Exam item: decide whether the reported percent inhibition of Factor XI mRNA, relative to untreated control cells for 416838 (antisense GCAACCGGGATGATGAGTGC; 5-10-5 gapmer, wing sugar chemistry not given here, further chemistry not given here) [compound 416838] is at least 80%.
Criterion not met

Answer whether percent inhibition of Factor XI mRNA, relative to untreated control cells of 416999 (antisense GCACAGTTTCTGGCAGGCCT; 2-13-5 gapmer, wing sugar chemistry not given here, further chemistry not given here) [compound 416999] is greater than or equal to 80%.
Criterion not met

Item 416969 (antisense eG*e[5mC]*d[5mC]*d[5mC]*dT*dT*d[5mC]*dA*dT*dG*dT*d[5mC]*dT*dA*dG*eG*eT*e[5mC]*e[5mC]*eA) [compound 416969] with percent inhibition of Factor XI mRNA, relative to untreated control cells of 80% or above?
Criterion met

Please tell me: is the substance 416908 (antisense eG*e[5mC]*eA*dA*d[5mC]*d[5mC]*dG*dG*dG*dA*dT*dG*dA*dT*dG*dA*dG*eT*eG*e[5mC]) [compound 416908] at or over 80% in terms of percent inhibition of Factor XI mRNA, relative to untreated control cells?
Criterion not met

Check this substance for percent inhibition of Factor XI mRNA, relative to untreated control cells at or above 80%: 416993 (antisense e[5mC]*eT*dT*dT*dG*dA*dG*dA*dT*dT*d[5mC]*dT*dT*dT*dG*eG*eG*e[5mC]*e[5mC]*eA) [compound 416993]
Criterion met

In plain terms: is recorded percent inhibition of Factor XI mRNA, relative to untreated control cells at least 80% for 416973 (antisense eT*eT*dA*dT*dG*d[5mC]*d[5mC]*d[5mC]*dT*dT*d[5mC]*dA*dT*dG*dT*e[5mC]*eT*eA*eG*eG) [compound 416973] ?
Criterion met

Say whether 417003 (antisense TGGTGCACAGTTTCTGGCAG; 2-13-5 gapmer, wing sugar chemistry not given here, further chemistry not given here) [compound 417003] shows percent inhibition of Factor XI mRNA, relative to untreated control cells of 80% or more.
Criterion not met

Could you verify whether the entry 416925 (antisense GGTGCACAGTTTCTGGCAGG; 3-14-3 chimeric gapmer, wing sugar chemistry not given here, further chemistry not given here) [compound 416925] shows percent inhibition of Factor XI mRNA, relative to untreated control cells of no less than 80%?
Criterion not met
